Values were extracted from ChEMBL document CHEMBL1201862.

Test system: UACC-257
TEST_SUMMARY: NCI tumour cell line growth inhibition, 48 h
Calls of active or inactive are those of the source. No stated cut-off is given here; in the data, active = GI50 up to about 1.1 µM and inactive = higher. Non-standard residues stand in square brackets, D forms with d. Residues, ends and D or L forms follow the SMILES beside them. ξ: configuration not given here. *: point of attachment. ξHyp = O=C(O)C1CC(O)CN1; Cbz = O=C(OCc1ccccc1)*
Your response should consist of one outcome taken from yes (1) (active), no (0) (inactive)

# fetch the recorded call for c1ccc2c(NCCCCCCCCNc3c4ccccc4nc4ccccc34)c3ccccc3nc2c1 here
no (0)

What is the recorded call for this compound in the test? CN(C)CCNC(=O)c1cccc2c1C(=O)c1ccccc1C2=O
no (0)

What classification did Nc1c2c(nc3ccccc13)CCCCCC2 end up with in this test?
no (0)

Just curious, what result did Cc1cn(C2CC3C(COCN3O)O2)c(=O)[nH]c1=O (stereo not drawn) get here?
no (0)

What did this assay record as the result for O=C1c2ccccc2C(=O)[C@@]23O[C@@]12C1(Oc2cccc4cccc(c24)O1)[C@@H]1O[C@@H]1[C@@H]3O ?
no (0)

Field: outcome | Entry: CC(=O)OC1C(O)C(C)OC(OC2C(OC(=O)C3CCC4C(C3)OC3(CC(OC(=O)/C=C/c5ccccc5)C(C)CO3)C43CO3)OC(C)C(O)C2OC(C)=O)C1O (stereo not drawn)
yes (1)

# fetch the recorded call for Nc1ccccc1/C=C\c1ccccc1 here
no (0)

In this assay, the call recorded for C[N+](C)(C)CCCSc1nc2ccccc2[nH]1 was what?
no (0)

Kindly provide the recorded test outcome for the following compound: CN(C)C(=O)Nc1c([N+](=O)[O-])cc(C(F)(F)F)cc1[N+](=O)[O-]
no (0)

Short answer needed: outcome of this test for Cc1ccc(S(=O)(=O)n2cc(/C=C/C#N)c(-c3cn(S(=O)(=O)c4ccc(C)cc4)cc3-c3cn(S(=O)(=O)c4ccc(C)cc4)cc3/C=C/C#N)c2)cc1 ?
no (0)

For CCOC(=O)C(NC(=O)OCc1ccccc1)C(=O)O (stereo not drawn) , which call appears in the assay record?
no (0)

What did the test return for Nc1ncc2c(n1)-c1ccccc1OC2 ?
no (0)

Assay result, entry S=C1Cc2c([nH]c3ccccc23)-c2ccccc2N1 — outcome?
no (0)

Name the outcome recorded for N#CC(C(=O)/C(=N/Nc1nc(S)nn1N)C(C#N)c1ccccc1)c1ccccc1 (stereo not drawn) in the assay.
no (0)

Give the logged outcome of this assay for the following compound: CCC1(Cl)C(=O)NC(=O)N(C2CC(O)C(CO)O2)C1N=[N+]=[N-] (stereo not drawn)
no (0)

Hello, I am checking results. What call was entered for COc1cc(Nc2nc3ccccc3n3cccc23)cc(OC)c1OC ?
no (0)

Tell me the assay call for CC(C(=O)Oc1ccc2ccccc2c1-c1c(O)ccc2ccccc12)c1ccccc1 (stereo not drawn) please.
no (0)

// outcome(item) with item = CC12CCC(C(Br)(Br)C1=O)C2(C)C (stereo not drawn)
no (0)

Answer briefly: the call reported for CCC(=O)N1NC(=O)C(CC)(CC)C1=O in this assay.
no (0)

Just curious, what result did CCOCC(=O)N[C@H]1CCc2cc(OC)c(OC)c(OC)c2-c2ccc(OC)c(=O)cc21 get here?
yes (1)

// outcome(item) with item = O=C(NC1=C(Cl)C(=O)c2ccccc2C1=O)C(=O)C(C(=O)c1ccc2ccccc2c1)C1OC(=O)c2ccccc21 (stereo not drawn)
no (0)

Returns: the outcome recorded for Cc1ccc(S(=O)(=O)n2ccn3c(=O)cc(C)nc23)cc1 in this assay.
no (0)

Which outcome was assigned to Cc1ccc(Cc2cc(N3CCN(c4cccc(Cl)c4)CC3)nnc2C)cc1 in this test?
no (0)

Check the results log: what was the call for CN(C)/C=N/[C@@H](C(=O)O)c1ccccc1 ?
no (0)

Assay outcome for Cc1cc(N(CCOS(C)(=O)=O)CCOS(C)(=O)=O)ccc1/C=N/c1ccc(-c2nc(Cc3ccccc3)sc2C)cc1 : what was it?
no (0)

Please indicate how the test categorized Cc1nnc(N)nc1/C=C\c1cccs1 .
no (0)

Any idea what this test logged for O=Cc1cc(O)c(O)c(O)c1-c1c(C=O)cc(O)c(O)c1O ?
no (0)

Please share the test call associated with C=CCOc1ccccc1/N=N/C(C#N)=N\Nc1ccccc1OCC=C .
no (0)

Tell me the assay call for CC1Oc2c(c(=O)oc3ccccc23)[C@@]1(C)CC1C[C@H](C)C(=O)O1 (stereo partly drawn) please.
no (0)

Give the logged outcome of this assay for the following compound: COc1ccc(C2C(Cl)C(=O)N2NC(=O)Cc2ccccc2)cc1 (stereo not drawn)
no (0)

Call for entry O=C1N/C(=N/N=C\c2ccccc2)N/C1=C/c1ccccc1 :
no (0)

Outcome? CCOC(=O)C12CCC(=O)N1N(C)c1ncccc1N2 (stereo not drawn)
no (0)

Fill in: this test's call for CCOC(=O)CCC(NC(=O)c1ccc(Oc2nc3ccccc3nc2C(=O)OCC)cc1)C(=O)OCC (stereo not drawn) is ___
no (0)

What call does the record list for COc1cc2cc[n+](C)c(Cc3ccccc3)c2cc1OC ?
no (0)

Give the logged outcome of this assay for the following compound: CO/C(N)=C(C#N)/N=C/c1cccs1
no (0)

Recorded test call requested for CCN(CC)C(=S)SNc1ccc(S(N)(=O)=O)cc1
no (0)

Each compound tested received a call. Report the one for COC(=O)C1=C(C)NC(C)=C(C(=O)OC)C1c1ccc(N=O)cc1 .
no (0)

Called result for CCn1c(=O)c2c(=O)[nH][nH]c2c2ccccc21
no (0)

Look up the recorded call for CC(=O)O[C@]12CCCCCCC1C1(O)C(O)CCC[C@H]12 (stereo partly drawn) in this test.
no (0)

Tell me the assay call for NC(=O)CNC(=O)C1CC(O)CN1C(=O)OCc1ccccc1 (stereo not drawn) (Cbz-[ξHyp]-Gly-NH2) please.
no (0)

Which outcome did this test record for the compound CC(C)(C)OC(=O)N1C(=O)OC[C@@H]2C=C[C@@H]21 ?
no (0)

Give the logged outcome of this assay for the following compound: Nc1ccc(COC(O)CN2CCCCC2)cc1[N+](=O)[O-] (stereo not drawn)
no (0)

For CCOC(=O)C(NC(=O)NC(C(=O)OCC)C(=O)OCC)C(=O)OCC , what call appears in the results of this test?
no (0)
